Molecular target: Muscarinic acetylcholine receptor M4 (Homo sapiens, UniProt P08173)
Sequence (P08173 whole entry): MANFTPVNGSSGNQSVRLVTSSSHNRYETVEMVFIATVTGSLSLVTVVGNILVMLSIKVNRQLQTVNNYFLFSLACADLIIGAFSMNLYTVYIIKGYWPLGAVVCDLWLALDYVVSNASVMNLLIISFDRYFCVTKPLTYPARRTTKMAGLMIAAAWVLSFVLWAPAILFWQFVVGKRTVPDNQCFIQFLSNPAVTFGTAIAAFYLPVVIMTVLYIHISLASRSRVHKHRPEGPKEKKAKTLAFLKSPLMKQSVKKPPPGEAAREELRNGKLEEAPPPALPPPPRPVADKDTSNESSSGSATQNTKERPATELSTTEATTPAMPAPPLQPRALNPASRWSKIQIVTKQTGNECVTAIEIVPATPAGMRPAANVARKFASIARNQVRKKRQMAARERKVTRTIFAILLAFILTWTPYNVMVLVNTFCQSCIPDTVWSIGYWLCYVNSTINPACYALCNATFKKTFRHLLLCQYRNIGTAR
Test: Positive allosteric modulation of human M4 receptor expressed in CHO cells co-expressing Gqi5 assessed as increase in acetylcholine-induced calcium mobilization
EXPERIMENTAL_ENDPOINT: EC50 (nM)
One number for each entry, in nM.

Please review the entries below; each comes with its answer.
>  <CHEMICAL_SMILES>
Cc1nnc2sc(C(=O)NC3CN(C(=O)Nc4ccccc4)C3)c(N)c2c1C

>  <ENDPOINT_RESULT>
217

$$$$
>  <CHEMICAL_SMILES>
COc1cncc(N2CC(NC(=O)c3sc4nnc(C)c(C)c4c3N)C2)c1

>  <ENDPOINT_RESULT>
17

$$$$
>  <CHEMICAL_SMILES>
Cc1nnc2sc(C(=O)NC3CN(C(=O)Oc4ccccc4)C3)c(N)c2c1C

>  <ENDPOINT_RESULT>
23

$$$$
>  <CHEMICAL_SMILES>
Cc1nnc2sc(C(=O)NC3CN(c4ccc(F)cc4)C3)c(N)c2c1C

>  <ENDPOINT_RESULT>
282

$$$$
>  <CHEMICAL_SMILES>
Cc1nnc2sc(C(=O)NC3CN(c4ccc(F)cc4F)C3)c(N)c2c1C

>  <ENDPOINT_RESULT>
37

$$$$
>  <CHEMICAL_SMILES>
Cc1nnc2sc(C(=O)NC3CN(c4nc5ccccc5o4)C3)c(N)c2c1C

>  <ENDPOINT_RESULT>
419

$$$$
>  <CHEMICAL_SMILES>
Cc1nnc2sc(C(=O)NC3CN(c4ccc(C(F)(F)F)nc4)C3)c(N)c2c1C

>  <ENDPOINT_RESULT>
76

$$$$
>  <CHEMICAL_SMILES>
Cc1nnc2sc(C(=O)NC3CN(C(=O)c4ccncc4)C3)c(N)c2c1C

>  <ENDPOINT_RESULT>
179

$$$$

I need EC50 for every entry listed below, if you could help.
1. Cc1nnc2sc(C(=O)NC3CN(c4cccc(F)c4F)C3)c(N)c2c1C
2. Cc1nnc2sc(C(=O)NC3CN(C(=O)c4ccccc4)C3)c(N)c2c1C
3. Cc1nnc2sc(C(=O)NC3CN(c4cncc(F)c4)C3)c(N)c2c1C
4. Cc1cccc(OC(=O)N2CC(NC(=O)c3sc4nnc(C)c(C)c4c3N)C2)c1
5. Cc1nnc2sc(C(=O)NC3CN(c4ccncc4Cl)C3)c(N)c2c1C
6. Cc1nnc2sc(C(=O)NC3CN(c4nc5cccnc5s4)C3)c(N)c2c1C

1: 19; 2: 773; 3: 16; 4: 67; 5: 8; 6: 106

I need EC50 for every entry listed below, if you could help.
1. COc1ccc(N2CC(NC(=O)c3sc4nnc(C)c(C)c4c3N)C2)cc1
2. Cc1nnc2sc(C(=O)NC3CN(c4ccnc(Cl)c4)C3)c(N)c2c1C
3. Cc1nnc2sc(C(=O)NC3CN(c4ccc(S(=O)(=O)C(F)(F)F)cc4)C3)c(N)c2c1C
4. Cc1nnc2sc(C(=O)NC3CN(c4cc(F)nc(F)c4)C3)c(N)c2c1C
5. Cc1nnc2sc(C(=O)NC3CN(C(=O)OCc4ccccc4)C3)c(N)c2c1C
6. Cc1nnc2sc(C(=O)NC3CN(c4ccccn4)C3)c(N)c2c1C

1: 1290; 2: 185; 3: 934; 4: 11; 5: 30; 6: 124

Which EC50 value is on record for Cc1nnc2sc(C(=O)NC3CN(c4ccccc4F)C3)c(N)c2c1C ?
28
